TARGET ENTITY: KMT9 (Homo sapiens)
Sequence (Q9Y5N5 1-214): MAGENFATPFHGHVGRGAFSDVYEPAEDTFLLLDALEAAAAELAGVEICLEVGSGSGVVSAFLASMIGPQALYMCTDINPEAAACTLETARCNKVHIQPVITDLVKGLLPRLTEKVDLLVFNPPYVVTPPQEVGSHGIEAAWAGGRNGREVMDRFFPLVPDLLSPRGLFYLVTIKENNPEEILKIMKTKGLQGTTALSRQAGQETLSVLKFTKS
Sequence (Q9UI30 1-120 isoform Q9UI30-2 partner): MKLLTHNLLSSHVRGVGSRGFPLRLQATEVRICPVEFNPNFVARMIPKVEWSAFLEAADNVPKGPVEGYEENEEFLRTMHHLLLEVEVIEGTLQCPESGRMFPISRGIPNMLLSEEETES
ASSAY TEXT: KMT9 thermal shift assay (SyproOrange)
Assay type: binding
MEASUREMENT SETUP: 500 µM compound, 2 μM KMT9; read-out: Thermal shift (ΔTm)
Each record here notes measured ΔTm at 500 µM.

Give recorded ΔTm at 500 µM with KMT9 (Homo sapiens) for the following compound: Nc1nc(Cl)nc2c1ccn2[C@@H]1C[C@H](c2cccc(OC(F)F)c2)[C@@H](O)[C@H]1O [Compound 676]
≤ 10 °C

Another compound to look at: COc1ccc([C@H]2C[C@@H](n3ccc4c(N)nc(Cl)nc43)[C@H](O)[C@@H]2O)cc1 [Compound 682]
10 to 15 °C

// query: COc1cc(OC)cc([C@H]2C[C@@H](n3ccc4c(N)nc(Cl)nc43)[C@H](O)[C@@H]2O)c1 [Compound 664]
10 to 15 °C

One more compound: CN1CCC[C@H]([C@H]2C[C@@H](n3cc(-c4nc(Cc5ccccc5)cs4)c4c(N)nc(Cl)nc43)[C@H](O)[C@@H]2O)C1 [Compound 597R]
15 to 20 °C

Consider next the compound Nc1nc(Cl)nc2c1c(-c1nc(Cc3ccccc3)cs1)cn2[C@@H]1C[C@H](C2CCN(CC3CCCC3)CC2)[C@@H](O)[C@H]1O [Compound 523] in the same way.
10 to 15 °C

Now consider a different compound.
State its ΔTm at 500 µM on KMT9 (Homo sapiens): CNc1ncnc2c1ccn2[C@@H]1C[C@H](c2cn[nH]c2)[C@@H](O)[C@H]1O [Compound 657]
≤ 10 °C
